Tested on: Staphylococcus aureus ATCC 25923
Format: cell-based
MEASUREMENT_SETUP: ATCC 25923
Peptide text beside a SMILES is read from it. * marks the point of attachment. Fmoc = O=C(OCC1c2ccccc2-c2ccccc21)*
MEASURE_NAME: MIC S. aureus (µg/mL)

• CSCC[C@H](NC(=O)[C@H](CCCNC(=N)N)NC(=O)[C@H](Cc1c[nH]c2ccccc12)NC(=O)[C@H](CCC(N)=O)NC(=O)[C@H](Cc1c[nH]c2ccccc12)NC(=O)[C@H](CCCNC(=N)N)NC(=O)[C@H](CCCNC(=N)N)NC(=O)OCC1c2ccccc2-c2ccccc21)C(=O)N[C@@H](CCCCN)C(=O)N[C@@H](CCCCN)C(=O)N[C@@H](CC(C)C)C(=O)O [LFB 20-29 FMOC] (Fmoc-RRWQWRMKKL-OH) = 10

----------
Tested on: Escherichia coli ATCC 25922
Format: cell-based
MEASUREMENT_SETUP: ATCC 25922
Peptide text beside a SMILES is read from it. * marks the point of attachment. Acm = CC(=O)NC*
MEASURE_NAME: MIC E. coli (µg/mL)

- CSCC[C@H](NC(=O)[C@H](CCCNC(=N)N)NC(=O)[C@H](Cc1c[nH]c2ccccc12)NC(=O)[C@H](CCC(N)=O)NC(=O)[C@H](Cc1c[nH]c2ccccc12)NC(=O)[C@H](CCCNC(=N)N)NC(=O)[C@H](CCCNC(=N)N)NC(=O)[C@H](CSCNC(C)=O)NC(=O)[C@H](CCCCN)NC(=O)[C@H](C)N)C(=O)N[C@@H](CCCCN)C(=O)N[C@@H](CCCCN)C(=O)N[C@@H](CC(C)C)C(=O)NCC(=O)N[C@@H](C)C(=O)O [LFB A1] (H-AKC(Acm)RRWQWRMKKLGA-OH): 70

----------
System: Escherichia coli ATCC 25922
Assay type: cell-based
MEASUREMENT_SETUP: ATCC 25922
Peptide text beside a SMILES is read from it. * marks the point of attachment. Acm = CC(=O)NC*
Recorded MIC E. coli values for a group of molecules are listed next.
MEASURE_NAME: MIC E. coli (mg/L)

* CSCC[C@H](NC(=O)[C@H](CCCNC(=N)N)NC(=O)[C@H](Cc1ccc2ccccc2c1)NC(=O)[C@H](CCC(N)=O)NC(=O)[C@H](Cc1c[nH]c2ccccc12)NC(=O)[C@H](CCCNC(=N)N)NC(=O)[C@H](CCCNC(=N)N)NC(=O)[C@H](CSCNC(C)=O)NC(=O)[C@H](CCCCN)NC(=O)[C@@H](N)Cc1ccccc1)C(=O)N[C@@H](CCCCN)C(=O)N[C@@H](CCCCN)C(=O)N[C@@H](CC(C)C)C(=O)NCC(=O)N[C@@H](C)C(=O)O | 10
* CSCC[C@H](NC(=O)[C@H](CCCNC(=N)N)NC(=O)[C@H](Cc1c[nH]c2ccccc12)NC(=O)[C@H](CCC(N)=O)NC(=O)[C@H](Cc1c[nH]c2ccccc12)NC(=O)[C@H](CCCNC(=N)N)NC(=O)[C@H](CCCNC(=N)N)NC(=O)[C@H](CSCNC(C)=O)NC(=O)[C@H](CCCCN)NC(=O)[C@@H](N)Cc1ccccc1)C(=O)N[C@@H](CCCCN)C(=O)N[C@@H](CCCCN)C(=O)N[C@@H](CC(C)C)C(=O)N[C@@H](Cc1c[nH]c2ccccc12)C(=O)N[C@@H](C)C(=O)O [LFB W14] (H-FKC(Acm)RRWQWRMKKLWA-OH) | 20
